study target: T1, 4H2937-bA
T1 chain: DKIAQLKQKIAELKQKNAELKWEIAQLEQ
protocol details: two-hybrid library CCNG1;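 further: natural log of median RNA to DNA barcode read ratio; higher means stronger binding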
value type: interaction score
Field format: numeric only.

DEIAQLEQEIAELEQENAELEWENAQLEQ [4H19-bA]
1.86

Prompt line: Recorded interaction score of DKIAQLKQENAELEQEIAELEWKNAQLKQ [4H2696-bA] , please.
Response line: 0.659

Prompt line: Which value of interaction score has been reported for DKIAQLKQKIAELKQKNAELKWEIAQLEQ [4H2937-bA] in the records?
Response line: -0.419

Prompt line: Value lookup for interaction score; key = DKIAQLKQKIAELKQEIAELEWENAQLEQ [4H2883-bA]
Response line: 0.793

Values compiled from paper PMC10397247.
